# growth annotations
System: U251 CNS
Assay: NCI-60 one-dose screen, 48 h (100 = growth as untreated, 0 = no growth, -100 = all killed)
Settings: 10 µM
About 83,000 compounds went through this panel and 20% of them were active in at least one assay; those are over-represented in the sample as a whole.
Please state the figure in %; there is no need to write the unit.

Some solved cases for reference:
compound	measuredOn	growth (%)
COc1ccc(Oc2nc(NC3CCCC3)nc(Sc3ccc(OC)cc3)n2)cc1	U251 CNS	44.4
CC(=O)N1C/C(=C/c2ccc(Cl)cc2)C(=O)/C(=C/c2ccc(Cl)cc2)C1	U251 CNS	-76.8
COc1cc(C2CC(c3ccc(Nc4ccnc5cc(Cl)ccc45)cc3)=NN2c2ccc(Cl)cc2)cc(OC)c1OC (stereo unspecified)	U251 CNS	51.9

# growth of O=C1C(c2ccccc2)C2C=CC(C2)N1O (stereo unspecified) = 109

# growth of COc1ccc(S(=O)(=O)Nc2c(/C=C\c3cc(OC)c(OC)c(OC)c3)ccc(OC)c2O)cc1 = 6.01

# growth of CSc1cc(SC)ncn1 = 108

# growth of O=C(Nc1cccc(-n2cc(-c3ccncc3)c(-c3ccc(O)c(Cl)c3)n2)c1)Nc1ccc(Cl)c(Cl)c1 = -70.9

# growth of CCOC(=O)N1C/C(=C/c2ccc(F)cc2)C(=O)/C(=C/c2ccc(F)cc2)C1 = -65.6

# growth of CC(C)C[C@H](NC(=O)[C@H](Cc1cccc2ccccc12)NS(=O)(=O)c1cccc2cccnc12)B(O)O = -52.9
